- Assay Explanation: PK Phase (Group 2): plasma concentrations and pharmacokinetics of Compound 18 and its metabolite Compound 4 after once daily ocular instillation of Compound 18 nanosuspension for 7 days
- Format: in vivo, New Zealand white rabbits
- Applied Conditions: male, New Zealand white, rabbit, plasma, topical or ocular, 0.8 mg/kg, plasma, Day 1, Compound 18 0.8 mg/kg ocular instillation; Mean, n=4; read-out: AUC0-24
Observation Type: AUC(0-t) (ng·h/mL)
Express your answer in ng·h/mL, writing the number without its unit.

>  <Compound>
CCCc1nn(C)c2c(=O)[nH]c(-c3cc(S(=O)(=O)N4CC(CCCO[N+](=O)[O-])C4)ccc3OCC)nc12 [Compound 18]

>  <Reported Value>
0.311

$$$$

What does the data say about its AUC(0-t)? Entry: CCCc1nn(C)c2c(=O)[nH]c(-c3cc(S(=O)(=O)N4CC(CCCO)C4)ccc3OCC)nc12 [Compound 4]
1.14

====

- Assay Explanation: TD Phase (Groups 1 and 3): plasma and ocular tissue concentrations and pharmacokinetics of Compound 18 and its metabolite Compound 4 after once daily ocular instillation of Compound 18 nanosuspension for 7 days
- Assay type: in vivo, New Zealand white rabbits
- Applied Conditions: male, New Zealand white, rabbit, topical or ocular; Aqueous Humor; Day 7; Compound 18 0.8 mg/kg ocular instillation once daily; Groups 1 and 3
Observation Type: Cmax (ng/mL)
Express your answer in ng/mL, writing the number without its unit.

What does the data say about its Cmax? Entry: CCCc1nn(C)c2c(=O)[nH]c(-c3cc(S(=O)(=O)N4CC(CCCO)C4)ccc3OCC)nc12
124

====

- Test system: human plasma proteins
- Assay Explanation: Plasma protein binding assay (equilibrium dialysis)
- Type: in vitro ADME
- Applied Conditions: 2 μM, dialysis 4 hours at 37° C.
Observation Type: % Bound (%)
Express your answer in %, writing the number without its unit.

Please review the entries below; each comes with its answer.
>  <Smiles Record>
CCCc1nn(C)c2c(=O)[nH]c(-c3cc(S(=O)(=O)N4CC(CCCO[N+](=O)[O-])C4)ccc3OCC)nc12

>  <% Bound (%)>
99.52

$$$$
>  <Smiles Record>
CCCc1nn(C)c2c(=O)[nH]c(-c3cc(S(=O)(=O)N4CC(NCCCO)C4)ccc3OCC)nc12

>  <% Bound (%)>
86.19

$$$$
>  <Smiles Record>
CCCc1nn(C)c2c(=O)[nH]c(-c3cc(S(=O)(=O)N4CC(NCCCO[N+](=O)[O-])C4)ccc3OCC)nc12

>  <% Bound (%)>
97.53

$$$$

What does the data say about its % Bound? Entry: CCCc1nn(C)c2c(=O)[nH]c(-c3cc(S(=O)(=O)N4CC(CCCO)C4)ccc3OCC)nc12
96.01

====

- Target System: human PDE-6C (Homo sapiens, UniProt P51160)
- Sequence (P51160 whole entry): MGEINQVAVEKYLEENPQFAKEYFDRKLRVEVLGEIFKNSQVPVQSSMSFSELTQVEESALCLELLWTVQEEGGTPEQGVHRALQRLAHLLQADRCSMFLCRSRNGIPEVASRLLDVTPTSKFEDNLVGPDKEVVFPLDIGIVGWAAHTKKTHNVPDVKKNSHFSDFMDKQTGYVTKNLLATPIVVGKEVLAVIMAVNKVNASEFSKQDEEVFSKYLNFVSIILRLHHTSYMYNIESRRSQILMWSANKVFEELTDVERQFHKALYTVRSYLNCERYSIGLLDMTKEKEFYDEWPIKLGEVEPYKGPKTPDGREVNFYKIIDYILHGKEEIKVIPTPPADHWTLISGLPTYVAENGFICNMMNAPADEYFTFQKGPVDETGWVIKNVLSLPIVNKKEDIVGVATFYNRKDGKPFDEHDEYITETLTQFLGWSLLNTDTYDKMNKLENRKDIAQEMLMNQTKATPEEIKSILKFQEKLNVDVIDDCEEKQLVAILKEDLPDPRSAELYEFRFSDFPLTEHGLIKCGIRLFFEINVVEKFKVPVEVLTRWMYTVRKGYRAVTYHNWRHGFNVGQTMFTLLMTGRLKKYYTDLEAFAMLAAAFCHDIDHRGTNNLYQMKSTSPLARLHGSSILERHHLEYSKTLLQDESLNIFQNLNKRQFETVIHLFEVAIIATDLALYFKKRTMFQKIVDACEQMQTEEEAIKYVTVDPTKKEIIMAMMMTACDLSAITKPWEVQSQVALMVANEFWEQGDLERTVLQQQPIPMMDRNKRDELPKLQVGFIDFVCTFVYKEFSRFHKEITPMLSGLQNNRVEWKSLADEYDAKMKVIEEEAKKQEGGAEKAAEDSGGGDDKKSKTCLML
- Assay Explanation: Human PDE-6C inhibition assay (fluorescence polarization, FAM-cGMP)
- Format: biochemical
- Applied Conditions: read-out: IC50 (μM) PDE6C
Observation Type: IC50

>  <Smiles Record>
CCCc1nn(C)c2c(=O)[nH]c(-c3cc(S(=O)(=O)N4CC(CN5CC(CO[N+](=O)[O-])C5)C4)ccc3OCC)nc12

>  <IC50>
0.01 to 0.1 µM

$$$$
>  <Smiles Record>
CCCc1nn(C)c2c(=O)[nH]c(-c3cc(S(=O)(=O)N4CC(N(C)CCOC(=O)CCCCCO[N+](=O)[O-])C4)ccc3OCC)nc12

>  <IC50>
< 0.01 µM

$$$$
>  <Smiles Record>
CCCc1nn(C)c2c(=O)[nH]c(-c3cc(S(=O)(=O)NC4CN(CCCO)C4)ccc3OCC)nc12

>  <IC50>
0.01 to 0.1 µM

$$$$
>  <Smiles Record>
CCCc1nn(C)c2c(=O)[nH]c(-c3cc(S(=O)(=O)N4CC(NCCCO[N+](=O)[O-])C4)ccc3OCC)nc12

>  <IC50>
< 0.01 µM

$$$$
>  <Smiles Record>
CCCc1nn(C)c2c(=O)[nH]c(-c3cc(S(=O)(=O)N4CC(NCCO[N+](=O)[O-])C4)ccc3OCC)nc12

>  <IC50>
< 0.01 µM

$$$$

What does the data say about its IC50? Entry: CCCc1nn(C)c2c(=O)[nH]c(-c3cc(S(=O)(=O)N4CC(N(C)CCCO)C4)ccc3OCC)nc12
0.01 to 0.1 µM

What does the data say about its IC50? Entry: CCCc1nn(C)c2c(=O)[nH]c(-c3cc(S(=O)(=O)N4CC(N5CC(O)C5)C4)ccc3OCC)nc12
< 0.01 µM

What does the data say about its IC50? Entry: CCCc1nn(C)c2c(=O)[nH]c(-c3cc(S(=O)(=O)N4CC(N(C)CCO)C4)ccc3OCC)nc12
< 0.01 µM

What does the data say about its IC50? Entry: CCCc1nn(C)c2c(=O)[nH]c(-c3cc(S(=O)(=O)NC4CN(CCO)C4)ccc3OCC)nc12
0.01 to 0.1 µM

What does the data say about its IC50? Entry: CCCc1nn(C)c2c(=O)[nH]c(-c3cc(S(=O)(=O)N4CC(CN5CC(CCO)C5)C4)ccc3OCC)nc12
0.01 to 0.1 µM

What does the data say about its IC50? Entry: CCCc1nn(C)c2c(=O)[nH]c(-c3cc(S(=O)(=O)N4CC(N(C)CCO[N+](=O)[O-])C4)ccc3OCC)nc12
< 0.01 µM

What does the data say about its IC50? Entry: CCCc1nn(C)c2c(=O)[nH]c(-c3cc(S(=O)(=O)N4CC(NCCCCO)C4)ccc3OCC)nc12
0.01 to 0.1 µM

What does the data say about its IC50? Entry: CCCc1nn(C)c2c(=O)[nH]c(-c3cc(S(=O)(=O)N4CC(CO[N+](=O)[O-])C4)ccc3OCC)nc12
0.01 to 0.1 µM

What does the data say about its IC50? Entry: CCCc1nn(C)c2c(=O)[nH]c(-c3cc(S(=O)(=O)N4CC(NCCO)C4)ccc3OCC)nc12
0.01 to 0.1 µM

====

- Assay Explanation: Plasma protein binding assay (equilibrium dialysis)
- Format: in vitro ADME
- Applied Conditions: human plasma, dialysis 4 hours at 37° C.
// fraction unbound at 4 h, 2 µM lookup, one value per entry
Number, no unit, nothing else.

Please review the entries below; each comes with its answer.
>  <Smiles Record>
CCCc1nn(C)c2c(=O)[nH]c(-c3cc(S(=O)(=O)N4CC(NCCCO[N+](=O)[O-])C4)ccc3OCC)nc12

>  <Reported Value>
0.0247

$$$$
>  <Smiles Record>
CCCc1nn(C)c2c(=O)[nH]c(-c3cc(S(=O)(=O)N4CC(NCCCO)C4)ccc3OCC)nc12

>  <Reported Value>
0.138

$$$$
>  <Smiles Record>
CCCc1nn(C)c2c(=O)[nH]c(-c3cc(S(=O)(=O)N4CC(CCCO)C4)ccc3OCC)nc12

>  <Reported Value>
0.0399

$$$$

What does the data say about its fraction unbound at 4 h, 2 µM? Entry: CCCc1nn(C)c2c(=O)[nH]c(-c3cc(S(=O)(=O)N4CC(CCCO[N+](=O)[O-])C4)ccc3OCC)nc12
0.0048

====

- Assay Explanation: PK Phase (Group 2): plasma concentrations and pharmacokinetics of Compound 18 and its metabolite Compound 4 after once daily ocular instillation of Compound 18 nanosuspension for 7 days
- Format: in vivo, New Zealand white rabbits
- Applied Conditions: male, New Zealand white, rabbit, plasma, topical or ocular, 0.8 mg/kg, plasma, Day 1, Compound 18 0.8 mg/kg ocular instillation; animal 207664
// Cmax lookup, one value per entry
Express your answer in ng/mL, writing the number without its unit.

>  <Smiles Record>
CCCc1nn(C)c2c(=O)[nH]c(-c3cc(S(=O)(=O)N4CC(CCCO[N+](=O)[O-])C4)ccc3OCC)nc12

>  <Cmax [ng/mL]>
0.0863

$$$$

Now take the following compound into account.
What does the data say about its Cmax? Entry: CCCc1nn(C)c2c(=O)[nH]c(-c3cc(S(=O)(=O)N4CC(CCCO)C4)ccc3OCC)nc12
0.497

====

- Assay Explanation: PK Phase (Group 2): plasma concentrations and pharmacokinetics of Compound 18 and its metabolite Compound 4 after once daily ocular instillation of Compound 18 nanosuspension for 7 days
- Type: in vivo, New Zealand white rabbits
- Applied Conditions: male, New Zealand white, rabbit, plasma, topical or ocular, 0.8 mg/kg, plasma, Day 7, Compound 18 0.8 mg/kg ocular instillation; Mean, n=4
// Cmax lookup, one value per entry
Express your answer in ng/mL, writing the number without its unit.

>  <Smiles Record>
CCCc1nn(C)c2c(=O)[nH]c(-c3cc(S(=O)(=O)N4CC(CCCO)C4)ccc3OCC)nc12

>  <Cmax (ng/mL)>
0.963

$$$$

Now take the following compound into account.
What does the data say about its Cmax? Entry: CCCc1nn(C)c2c(=O)[nH]c(-c3cc(S(=O)(=O)N4CC(CCCO[N+](=O)[O-])C4)ccc3OCC)nc12
0.17
